Data provenance: the supplement of paper PMC9254222

For each record, write down the corresponding Renilla luciferase signal.
# Tested on: HEK293T (UBE3A T485A transfected, BAR Wnt reporter)
# protocol details: Renilla luciferase signal (cell health) relative to plate median (fold (linear ratio)); higher = higher Renilla signal
# condition set: concentration: 10 uM; 24 h
The full ranking holds about 1,100 compounds; the median of “Renilla luciferase signal (cell health) relative to plate median” is about 0.97, and the highest 2% start at about 1.6. Shown is part of a subset that was picked to be rich in the highest values.
Form: value (number only, do not type unit).

Fill in the blank: the reported Renilla luciferase signal of CC(C)CC(C)(O)C#CC(C)(O)CC(C)C (centres undefined) is ____.
0.966

Field entry: "Nc1ncn([C@@H]2O[C@H](CO)[C@@H](O)[C@H]2O)c(=O)n1"
0.138

Field entry: "COc1cc(C(C)C)c2c(c1)S(=O)(=O)N(COc1cc(=O)n3cccc(OCCN4CCCCC4)c3n1)C2=O"
1.21

Field entry: "CN(C)c1ccc(C(=C2C=CC(=[N+](C)C)C=C2)c2ccc(N(C)C)cc2)cc1.[Cl-]"
0.0245
